Experiment: soluble on expression in E. coli; label from the status in PepcDB or PDB records
measured-endpoint: soluble on expression in E. coli

Please review the following examples before continuing.
• MDDLTIEILTDDADYDLQRFDCGEEALNLFLTTHLVRQHRNKILRAYILCRNTPERQVLGYYTLCGSCFERAALPSKSKQKKIPYKNIPSVTLGRLAIDRSLQGQGWGATLVAHAMNVVWSASLAVGIHGLFVEALNEKAHTFYKSLGFIPLVGENENALFFPTKSIELLFTQSD = not soluble
• MLDRIRGQLEQLSSAERKVADLVLEQPYTVIQAAVAEIARNAGVSQPTVIRFCRTVGCSGLPDFKLKLAGSLVTGVPYVHSSVRPEDPTSEIVAKVFDNTVSALLKCRNDVN = not soluble
• MGSDKIHHHHHHMNKKFLLTGASGFVGKHLYSINPSQFRCVVREDGERFPDAYKVNGINSKTDWTDSFLDIDCIIHLAGLAHSNNNRNDEYRETNFLGTLCLAQQASKSGVKRFVFVSSIGVNGNATLEKPFSIFDEPKPLNSYTNSKYDAEIGLKKIAAETGLEVVIVRPTLVYGPNAPGNFGLLTKLVKKLPVLPFGLANNKRDFIAVQNLADLLITCATHPNAAGHMFLASDMETVSIKQFTNAIADGLGKKVFQFPIPVSLMRLTGKLMRKSAMVEQLLGNLQVDSSNIKEVLDWTPPLTMKQAMTTLCDSGKSS = not soluble
• MAKNKVLGRGLADIFPEINEVYEQGLYERANRVVELGIDEVMPNPYQPRKVFSEDSLEELAQSIKEHGLLQPVLVVSENGRYHLIAGERRLRASKLAKMPTIKAIVVDIEQEKMREVALIENIQREDLNPLELARSYKELLESYQMTQEELSKIVKKSRAHVANIMRLLTLSSKVQNALLEEKITSGHAKVLVGLDGEKQELILNSIIGQKLSVRQTEDLARDFKINANFDNKKHGFKQTQTLIAGDELERLNQSLWDHYKLKAALKGNKIVLRCYENSLLEAFMKKMMS = not soluble
• MSLANGIEFNQNPASVFNSNSLDFELESQQLTQKNSSNTSSPLINLQNELAMITSSSLSETIEGLSLGYRKGSARKEEEGTTIEKLLNEMQELLTLTDSDKIKELSLKNSGLLEQHDPTLAMFGNMPKGEIVALISSLLQSKFVKIELKKKYAKLLLDLLGEDDWELALLSWLGVGELNQEGIQKIKKLYEKAKDEDSENGASLLDWFMEIKDLPEREKHLKVIIRALSFDLSYMSSFEDKVRTSSIISDLCRIIIFLSLNNYTDIIAISIKKDKDVILNEMLSIIEHVWLTEDWLLESPSRVSIVEDKHVYYFHLLKEFFASLPDACFIDNEQRSNTLLMIGKVIDYKEDVMEGHHHHHH = soluble

// next item, soluble on expression in E. coli requested
Can you share its soluble on expression in E. coli? I mean this sequence: `MAHHHHHHMITSINVIHELLTTIYCRIFSRKRKDIYKYDVLLYLQDYYYFDVIKRVSDDIKELDDDSITIEINSNEYEVILNGDKSSSFFNHTFENFCIHRGYDIIKDKTYSNEYEKRIDFLHELLCDLLCLLLNENNEKKGKEKEKEEKKNNMNKNMNYNKERVINKMYHNNNHLFKKFWENIQDILKEINILNENKYVEDINEENIKDILYIQKEKLIKNEDIIIKKNVDINKITLLNNLIEKYNNEYKYRFYYIFLNNYLTIQTMFTSNMIYLYSYEIQNIIHKIIKMKINLYQPLTIYDVLAFQYDQIMFHKSSYMNLISPVKKIKILNNIVERGGDPDEFSKKVIIKDVINANISLKAKFNKARTQNDNNWGNNKYKVRNYYDNNRR`
soluble
